Biological target: human H4 receptor (Homo sapiens)
Construct: expressed in transfected cells
Sequence (Q9H3N8 whole entry): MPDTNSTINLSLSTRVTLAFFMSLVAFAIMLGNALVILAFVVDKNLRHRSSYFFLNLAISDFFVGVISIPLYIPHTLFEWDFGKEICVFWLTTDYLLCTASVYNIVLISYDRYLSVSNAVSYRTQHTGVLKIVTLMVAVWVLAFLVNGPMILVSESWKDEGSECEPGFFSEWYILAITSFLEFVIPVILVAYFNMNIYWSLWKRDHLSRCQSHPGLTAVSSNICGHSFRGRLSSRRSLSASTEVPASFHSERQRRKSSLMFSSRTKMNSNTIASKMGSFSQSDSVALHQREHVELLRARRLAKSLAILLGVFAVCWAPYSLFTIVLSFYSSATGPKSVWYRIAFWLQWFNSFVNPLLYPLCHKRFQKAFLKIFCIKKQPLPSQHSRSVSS
Assay: [3H]Histamine binding on membranes of CHO cells stably expressing human H4 receptor
Measured Ki or IC50 activity class of individual entries
quantity_measured: Ki or IC50 activity class

INSERT INTO assay_data (molecule, target_system, val) VALUES
  ('COc1cccc(-c2cccc(C(OC3CCN(C)CC3)c3nc4ccccc4s3)c2)c1 (centres unmarked)', 'human H4 receptor (Homo sapiens)', '< 300 nM'),
  ('CN1CCC(OC(c2cccc(N3CC4CC(N)CC4C3)c2)c2nc3ccccc3s2)CC1 (centres unmarked)', 'human H4 receptor (Homo sapiens)', '< 300 nM'),
  ('CC(=O)c1ccc(-c2cccc(C(OC3CCN(C)CC3)c3nc4ccccc4[nH]3)c2)cc1 (centres unmarked)', 'human H4 receptor (Homo sapiens)', '< 300 nM'),
  ('CN1CCC(OC(c2cccc(N3CCCC3CO)c2)c2nc3ccccc3s2)CC1 (centres unmarked) [Example 324]', 'human H4 receptor (Homo sapiens)', '< 300 nM'),
  ('CN1CCC(OC(c2cccc(CCCCCCN)c2)c2nc3ccccc3[nH]2)CC1 (centres unmarked)', 'human H4 receptor (Homo sapiens)', '< 300 nM'),
  ('CN1CCC(OC(c2ccc3ccccc3c2)c2nc3ccccc3s2)CC1 (centres unmarked)', 'human H4 receptor (Homo sapiens)', '< 300 nM'),
  ('Cc1ccc(C(OC2CCN(C)CC2)c2nc3ccccc3[nH]2)c(O)c1 (centres unmarked)', 'human H4 receptor (Homo sapiens)', '< 30 nM'),
  ('CN1CCC(OC(c2nc3ccccc3[nH]2)c2c(O)cccc2F)CC1 (centres unmarked)', 'human H4 receptor (Homo sapiens)', '< 30 nM'),
  ('COc1cccc(C(OC2CCN(C)CC2)c2nc3ccccc3s2)c1 (centres unmarked)', 'human H4 receptor (Homo sapiens)', '< 30 nM'),
  ('CN1CCC(OC(c2cccc(Br)c2)c2nc3cc(F)ccc3[nH]2)CC1 (single isomer, unassigned) [Example 567]', 'human H4 receptor (Homo sapiens)', '< 300 nM'),
  ('Cc1cccc(C(OC2CCN(C)CC2)c2nc3ccccc3[nH]2)c1O (centres unmarked)', 'human H4 receptor (Homo sapiens)', '< 30 nM'),
  ('CN1CCC(OC(c2cccc(C#CCCCN)c2)c2nc3cc(F)ccc3[nH]2)CC1 (centres unmarked)', 'human H4 receptor (Homo sapiens)', '< 30 nM'),
  ('CN1CCC(OC(c2cccc(-c3ccc(NC(=O)OC(C)(C)C)cc3)c2)c2nc3ccccc3[nH]2)CC1 (centres unmarked)', 'human H4 receptor (Homo sapiens)', '< 300 nM'),
  ('CN1CCC(OC(c2nc3ccccc3[nH]2)c2cc(OC(F)(F)F)ccc2O)CC1 (centres unmarked)', 'human H4 receptor (Homo sapiens)', '< 30 nM'),
  ('CN1CCC(OC(c2ccc3c(c2)OCO3)c2nc3ccccc3s2)CC1 (centres unmarked)', 'human H4 receptor (Homo sapiens)', '< 300 nM'),
  ('CN1CCC(OC(c2cccc(-c3cccc(CO)c3)c2)c2nc3ccccc3[nH]2)CC1 (centres unmarked)', 'human H4 receptor (Homo sapiens)', '< 300 nM'),
  ('CN1CCC(OC(c2cccc(C#CCCCNC(=N)NC(=O)OC(C)(C)C)c2)c2nc3ccccc3s2)CC1 (centres unmarked)', 'human H4 receptor (Homo sapiens)', '< 300 nM'),
  ('CN1CCC(OC(c2cccc(C#CCCNC(=N)NC(=O)OC(C)(C)C)c2)c2nc3ccccc3s2)CC1 (centres unmarked)', 'human H4 receptor (Homo sapiens)', '< 300 nM'),
  ('CN1CCC(OC(c2cccc(C#N)c2)c2nc3ccccc3s2)CC1 (centres unmarked)', 'human H4 receptor (Homo sapiens)', '< 30 nM'),
  ('CN1CCC(OC(c2cccc(CCCCCCNC(=N)N)c2)c2nc3ccccc3[nH]2)CC1 (centres unmarked)', 'human H4 receptor (Homo sapiens)', '< 300 nM'),
  ('CN1CCC(OC(c2cccc(SCC(N)=O)c2)c2nc3ccccc3s2)CC1 (centres unmarked)', 'human H4 receptor (Homo sapiens)', '< 1000 nM'),
  ('CNC1CCN(c2cccc(C(OC3CCN(C)CC3)c3nc4ccccc4s3)c2)C1 (centres unmarked)', 'human H4 receptor (Homo sapiens)', '< 300 nM'),
  ('CN1CCC(OC(c2ccc(F)cc2)c2nc3ccccc3[nH]2)CC1 (centres unmarked)', 'human H4 receptor (Homo sapiens)', '< 300 nM'),
  ('CN1CCC(OC(c2cccc(Oc3ccccc3)c2)c2nc3ccccc3s2)CC1 (centres unmarked)', 'human H4 receptor (Homo sapiens)', '< 300 nM'),
  ('CN1CCC(OC(c2nc3ccccc3[nH]2)c2cc(Cl)ccc2F)CC1 (centres unmarked)', 'human H4 receptor (Homo sapiens)', '< 300 nM'),
  ('CN1CCC(OC(c2cccc(N3CCC(N)CC3)c2)c2nc3ccccc3s2)CC1 (centres unmarked)', 'human H4 receptor (Homo sapiens)', '< 300 nM'),
  ('CN1CCC(OC(c2ccc(Cl)cc2)c2nc3ccccc3[nH]2)CC1 (centres unmarked)', 'human H4 receptor (Homo sapiens)', '< 300 nM'),
  ('CN1CCC(OC(c2cccc(OCC=CCO)c2)c2nc3ccccc3s2)CC1 (centres unmarked)', 'human H4 receptor (Homo sapiens)', '< 30 nM'),
  ('CC(O)CSc1cccc(C(OC2CCN(C)CC2)c2nc3ccccc3s2)c1 (centres unmarked)', 'human H4 receptor (Homo sapiens)', '< 30 nM'),
  ('CN1CCC(OC(c2cccc(OCCCCN)c2)c2nc3ccccc3[nH]2)CC1 (centres unmarked)', 'human H4 receptor (Homo sapiens)', '< 300 nM'),
  ('CN1CCC(OC(c2cccc(C#CCCCCN)c2)c2nc3ccccc3n2C)CC1 (centres unmarked)', 'human H4 receptor (Homo sapiens)', '< 300 nM'),
  ('CN1CCC(OC(c2ccc(C(F)(F)F)cc2)c2nc3ccccc3[nH]2)CC1 (centres unmarked)', 'human H4 receptor (Homo sapiens)', '< 1000 nM'),
  ('CN1CCC(OC(c2nc3ccccc3[nH]2)c2cc(F)ccc2O)CC1 (centres unmarked)', 'human H4 receptor (Homo sapiens)', '< 30 nM'),
  ('CN1CCC(NC(c2cccc(OCC3CCCCC3)c2)c2nc3ccccc3[nH]2)CC1 (centres unmarked)', 'human H4 receptor (Homo sapiens)', '< 300 nM'),
  ('CN1CCC(OC(c2nc3ccccc3[nH]2)c2ccccc2Cl)CC1 (centres unmarked)', 'human H4 receptor (Homo sapiens)', '< 300 nM');

* * *

Structures can show the parent of a compound that is named as a salt.
Property: melting point; scope: individual compounds
quantity_measured: melting point (°C)

INSERT INTO assay_data (compound, quantity_measured, val) VALUES
  ('CN1CCC(OC(c2nc3ccccc3[nH]2)c2cccc(I)c2F)CC1 (stereo not shown)', 'melting point', 125),
  ('CN1CCC(OC(c2cccc(OCCCC(F)(F)F)c2)c2nc3ccccc3s2)CC1 (stereo not shown) (as salt: oxalate)', 'melting point', 115),
  ('CCCOc1cccc(C(OC2CCN(C)CC2)c2nc3ccccc3[nH]2)c1 (stereo not shown)', 'melting point', 135),
  ('CN1CCC(OC(c2cccc(OCCCCCN)c2)c2nc3ccccc3[nH]2)CC1 (stereo not shown) (as salt: oxalate)', 'melting point', 111),
  ('Cc1ccc(C(OC2CCN(C)CC2)c2nc3ccccc3[nH]2)c(O)c1F (stereo not shown)', 'melting point', 148),
  ('CN1CCC(OC(c2cccc(OCCCCN)c2)c2nc3ccccc3[nH]2)CC1 (stereo not shown) (as salt: oxalate)', 'melting point', 115),
  ('CN1CCC(NC(c2cccc(SCc3ccccc3)c2)c2nc3ccccc3s2)CC1 (stereo not shown) (as salt: oxalate)', 'melting point', 50),
  ('COc1cccc(COc2cccc(C(OC3CCN(C)CC3)c3nc4ccccc4s3)c2)c1 (stereo not shown) (as salt: oxalate)', 'melting point', 77),
  ('CN1CCC(OC(c2cccc(-c3cccc(F)c3)c2)c2nc3ccccc3[nH]2)CC1 (stereo not shown) (as salt: oxalate)', 'melting point', 120),
  ('CN1CCC(OC(c2nc3ccccc3[nH]2)c2cc(SCCCF)ccc2O)CC1 (stereo not shown)', 'melting point', 128),
  ('CN1CCC(OC(c2nc3ccccc3[nH]2)c2cc(OC(F)(F)F)ccc2Cl)CC1 (stereo not shown) (as salt: oxalate)', 'melting point', 107),
  ('CN1CCC(OC(c2cccc(N3CCC(N)CC3)c2)c2nc3ccccc3s2)CC1 (stereo not shown) (as salt: oxalate)', 'melting point', 137),
  ('CN1CCC(OC(c2cccc(OCCCN)c2)c2nc3ccccc3[nH]2)CC1 (stereo not shown)', 'melting point', 97),
  ('CN1CCC(OC(c2cccc(SCCNc3c(N)c(=O)c3=O)c2)c2nc3ccccc3[nH]2)CC1 (stereo not shown)', 'melting point', 161),
  ('CN1CCC(OC(c2nc3cccc(F)c3[nH]2)c2cc(OC(F)(F)F)ccc2F)CC1 (stereo not shown) (as salt: oxalate)', 'melting point', 135),
  ('CN1CCC(OC(c2cccc(SC(C)(C)CCO)c2)c2nc3ccccc3[nH]2)CC1 (stereo not shown)', 'melting point', 80),
  ('COC(=O)c1cccc(C(OC2CCN(C)CC2)c2nc3ccccc3s2)c1 (stereo not shown) (as salt: oxalate)', 'melting point', 93),
  ('CN1CCC(OC(c2ccc3cc[nH]c3c2)c2nc3ccccc3[nH]2)CC1 (stereo not shown) (as salt: oxalate)', 'melting point', 170),
  ('CN1CCC(OC(c2ccc3ccccc3c2)c2nc3ccccc3s2)CC1 (stereo not shown) (as salt: hydrochloride)', 'melting point', 198),
  ('CN1CCC(OC(c2cccc(C#CCCNC(=N)NC(=O)OC(C)(C)C)c2)c2nc3ccccc3s2)CC1 (stereo not shown)', 'melting point', 120),
  ('COc1ccc(O)c(C(OC2CCN(C)CC2)c2nc3ccccc3[nH]2)c1 (stereo not shown)', 'melting point', 146),
  ('CN1CCC(OC(c2cccc(CCCCN)c2)c2nc3ccccc3s2)CC1 (stereo not shown) (as salt: oxalate)', 'melting point', 100),
  ('CN1CCC(OC(c2cccc(Oc3ccccc3)c2)c2nc3ccccc3s2)CC1 (stereo not shown) (as salt: oxalate)', 'melting point', 92),
  ('CN1CCC(OC(c2cccc(C#CCCCn3cccn3)c2)c2nc3ccccc3[nH]2)CC1 (stereo not shown) (as salt: oxalate)', 'melting point', 115),
  ('COc1cccc(C(NC2CCN(C)CC2)c2nc3ccccc3[nH]2)c1 (stereo not shown)', 'melting point', 182),
  ('CN1CCC(OC(c2cccc(OCCCCN3CCN(C(=O)OC(C)(C)C)CC3)c2)c2nc3ccccc3[nH]2)CC1 (stereo not shown)', 'melting point', 64);

Provenance of the data: patent US8802664B2
